Task for the reader: assign each of the following molecules its reported IC50.
Measured on: PSMA-expressing C4-2 cells (Homo sapiens, UniProt Q04609)
Construct: PSMA-expressing C4-2 cells (ATCC, Cat. No. CRL-3314) were cultured in RPMI-1640; host or cells: C4-2 cells
Sequence (Q04609 whole entry): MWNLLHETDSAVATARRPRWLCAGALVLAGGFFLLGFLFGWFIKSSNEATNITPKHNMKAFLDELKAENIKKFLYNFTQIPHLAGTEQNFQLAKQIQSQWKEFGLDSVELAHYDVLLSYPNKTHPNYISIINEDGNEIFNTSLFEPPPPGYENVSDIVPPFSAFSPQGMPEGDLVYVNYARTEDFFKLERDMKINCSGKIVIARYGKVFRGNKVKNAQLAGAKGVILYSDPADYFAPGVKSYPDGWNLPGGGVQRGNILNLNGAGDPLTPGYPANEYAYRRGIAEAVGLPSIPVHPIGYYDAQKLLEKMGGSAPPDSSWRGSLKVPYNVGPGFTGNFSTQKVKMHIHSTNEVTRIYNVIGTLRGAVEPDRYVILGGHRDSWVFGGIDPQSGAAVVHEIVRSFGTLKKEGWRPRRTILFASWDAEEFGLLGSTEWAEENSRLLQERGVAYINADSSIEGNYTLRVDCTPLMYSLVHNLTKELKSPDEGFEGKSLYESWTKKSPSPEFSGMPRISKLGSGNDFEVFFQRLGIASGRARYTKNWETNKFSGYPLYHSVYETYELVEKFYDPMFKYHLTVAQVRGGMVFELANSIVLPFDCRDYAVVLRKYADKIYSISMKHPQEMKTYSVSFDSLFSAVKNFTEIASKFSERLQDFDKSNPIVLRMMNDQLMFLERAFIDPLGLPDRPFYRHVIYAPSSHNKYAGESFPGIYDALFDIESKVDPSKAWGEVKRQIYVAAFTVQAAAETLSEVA
Protocol description: FACS binding assay (competition with 50 nM PSM-0183)
Conditions used: FACS binding, PSMA-expressing C4-2 cells; pIC50 category; read-out: pIC50 [C4-2] CAT (converted)
Bridge positions count the residues as written; N and C are the ends. Square brackets hold non-standard residues; d marks the D form. Peptide text beside a SMILES is read from it. * marks the point of attachment. DOTA = O=C(O)CN1CCN(CC(=O)O)CCN(CC(=O)*)CCN(CC(=O)O)CC1; Cit = NC(=O)NCCC[C@H](N)C(=O)O; dTle = CC(C)(C)[C@@H](N)C(=O)O; Tle = CC(C)(C)[C@H](N)C(=O)O; Api = NC1(C(=O)O)CCNCC1; Aib = CC(C)(N)C(=O)O

The examples below pair each entry with its known result.
CC(=O)N[C@H](C(=O)NC(C)(C)C(=O)N[C@@H](Cc1ccccc1)C(=O)N[C@H]1CSSC[C@@H](C(=O)N[C@H](C(=O)N[C@H](C(=O)N[C@@H](CC(=O)O)C(N)=O)[C@@H](C)O)C(C)(C)C)NC(=O)[C@H](CC(N)=O)NC(=O)C(C)(C)NC(=O)[C@H](CCCNC(N)=O)NC(=O)[C@H](CCCCN)NC1=O)[C@@H](C)O [PSM-0280] (Ac-T[Aib]FCK[Cit][Aib]NC[Tle]TD-NH2; disulfide 4-9) :: < 0.2 µM
CC(=O)N[C@H](C(=O)NC(C)(C)C(=O)N[C@@H](Cc1ccccc1)C(=O)N[C@H]1CSSC[C@@H](C(=O)N[C@@H](C(=O)N[C@H](C(N)=O)[C@@H](C)O)C(C)(C)C)NC(=O)[C@H](CC(N)=O)NC(=O)C(C)(C)NC(=O)[C@H](CCCNC(=N)N)NC(=O)[C@H](CCCCN)NC1=O)[C@@H](C)O [PSM-0350] (Ac-T[Aib]FCKR[Aib]NC[dTle]T-NH2; disulfide 4-9) :: 0.2 to 1.26 µM

With those in mind, consider the next molecule.
Tell me the measured IC50 of CC(=O)N[C@H](C(=O)NC(C)(C)C(=O)N[C@@H](Cc1ccccc1)C(=O)N[C@H]1CSSC[C@@H](C(=O)N[C@H](C(=O)N[C@H](C(N)=O)[C@@H](C)O)C(C)(C)C)NC(=O)[C@H](CC(N)=O)NC(=O)C2(CCN(C(=O)CN3CCN(CC(=O)O)CCN(CC(=O)O)CCN(CC(=O)O)CC3)CC2)NC(=O)[C@H](CCCNC(=N)N)NC(=O)[C@H](CCCCN)NC1=O)[C@@H](C)O [PSM-0321] (Ac-T[Aib]FCKR[Api](DOTA)NC[Tle]T-NH2; disulfide 4-9) , please.
< 0.2 µM

* * *

Measured on: Fc-fusion protein of human PSMA (hPSMA-Fc) (Homo sapiens)
Construct: purchased Acro Biosystems PSA-H5264
Sequence (Q04609 44-750 limits assumed): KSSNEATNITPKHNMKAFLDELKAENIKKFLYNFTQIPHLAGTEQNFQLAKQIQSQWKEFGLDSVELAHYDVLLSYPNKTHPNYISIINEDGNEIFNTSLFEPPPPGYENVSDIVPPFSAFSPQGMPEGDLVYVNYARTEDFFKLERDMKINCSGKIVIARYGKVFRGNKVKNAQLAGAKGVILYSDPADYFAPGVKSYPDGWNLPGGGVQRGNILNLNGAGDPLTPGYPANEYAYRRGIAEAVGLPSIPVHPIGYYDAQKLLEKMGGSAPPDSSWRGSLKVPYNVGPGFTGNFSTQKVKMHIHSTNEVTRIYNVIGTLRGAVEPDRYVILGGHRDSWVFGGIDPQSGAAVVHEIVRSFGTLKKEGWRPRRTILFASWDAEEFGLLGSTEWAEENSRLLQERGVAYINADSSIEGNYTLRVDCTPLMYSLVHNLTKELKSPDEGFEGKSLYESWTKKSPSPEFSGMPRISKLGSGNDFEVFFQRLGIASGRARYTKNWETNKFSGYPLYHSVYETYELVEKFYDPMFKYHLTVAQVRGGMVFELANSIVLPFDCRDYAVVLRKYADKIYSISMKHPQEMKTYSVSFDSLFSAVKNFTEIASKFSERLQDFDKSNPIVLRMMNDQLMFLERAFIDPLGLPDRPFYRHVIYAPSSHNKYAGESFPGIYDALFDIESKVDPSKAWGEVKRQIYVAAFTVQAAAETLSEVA
Protocol description: Surface plasmon resonance assay (Biacore T200, single cycle kinetic)
Assay type: binding
Conditions used: PSMA SPR assay, category; read-out: pKD CAT (converted)
Numbered stars: 1 amine (or outer) side, 2 acyl side, 3 side chain; on linkers, the order of the positions; unused ones are H or OH. Bridge positions count the residues as written; N and C are the ends. Square brackets hold non-standard residues; d marks the D form. Peptide text beside a SMILES is read from it. * marks the point of attachment. DOTA = O=C(O)CN1CCN(CC(=O)O)CCN(CC(=O)*)CCN(CC(=O)O)CC1; Phe(4-CH2COOH) = N[C@@H](Cc1ccc(CC(=O)O)cc1)C(=O)O; X16 = CNC(=N)N(C)CCC[C@H](N[*:1])C(=O)[*:2]; Phe(4-Cl) = N[C@@H](Cc1ccc(Cl)cc1)C(=O)O; Arg(Me) = CNC(=N)NCCC[C@H](N)C(=O)O; X1 = O=C(CC1CCN([*:1])CC1)[*:2]; Lys(Me) = CNCCCC[C@H](N)C(=O)O; Suc = O=C(CCC(=O)[*:2])[*:1]; Tle = CC(C)(C)[C@H](N)C(=O)O; Aib = CC(C)(N)C(=O)O
Reported metric: Kd

The examples below pair each entry with its known result.
C[C@@H](O)[C@H](NC(=O)[C@@H](NC(=O)[C@@H]1CSSC[C@H](NC(=O)[C@H](Cc2ccc(CC(=O)O)cc2)NC(=O)C(C)(C)NC(=O)[C@@H](NC(=O)CC2CCN(C(=O)CN3CCN(CC(=O)O)CCN(CC(=O)O)CCN(CC(=O)O)CC3)CC2)[C@@H](C)O)C(=O)N[C@@H](CCCCN)C(=O)N[C@@H](CCCNC(=N)N)C(=O)NC(C)(C)C(=O)N[C@@H](CC(N)=O)C(=O)N1)C(C)(C)C)C(N)=O [PSM-0566] ({DOTA}-[X1]T[Aib][Phe(4-CH2COOH)]CKR[Aib]NC[Tle]T-NH2; disulfide 5-10) :: > 501 nM
CNCCCC[C@@H]1NC(=O)[C@@H](NC(=O)[C@H](Cc2ccc(Cl)cc2)NC(=O)C(C)(C)NC(=O)[C@@H](NC(=O)CC2CCN(C(=O)CN3CCN(CC(=O)O)CCN(CC(=O)O)CCN(CC(=O)O)CC3)CC2)[C@@H](C)O)CSSC[C@@H](C(=O)O)NC(=O)[C@H](CC(N)=O)NC(=O)C(C)(C)NC(=O)[C@H](CCCNC(=N)NC)NC1=O [PSM-0594] ({DOTA}-[X1]T[Aib][Phe(4-Cl)]C[Lys(Me)][Arg(Me)][Aib]NC-OH; disulfide 5-10) :: > 501 nM
C[C@@H](O)[C@H](NC(=O)[C@@H](NC(=O)[C@@H]1CSSC[C@H](NC(=O)[C@H](Cc2ccccc2)NC(=O)C(C)(C)NC(=O)[C@@H](NC(=O)CN2CCN(CC(=O)O)CCN(CC(=O)O)CCN(CC(=O)O)CC2)[C@@H](C)O)C(=O)N[C@@H](CCCCN)C(=O)N[C@@H](CCCNC(=N)N)C(=O)NC(C)(C)C(=O)N[C@@H](CC(N)=O)C(=O)N1)C(C)(C)C)C(N)=O [PSM-0580] ({DOTA}-T[Aib]FCKR[Aib]NC[Tle]T-NH2; disulfide 4-9) :: < 12.6 nM

// for each compound in input: emit Kd
1. CC(=O)N[C@H](C(=O)NC(C)(C)C(=O)N[C@@H](Cc1ccccc1)C(=O)N[C@H]1CSSC[C@@H](C(=O)N[C@H](C(=O)N[C@H](C(N)=O)[C@@H](C)O)C(C)(C)C)NC(=O)[C@H](CCC(=O)O)NC(=O)C(C)(C)NC(=O)[C@H](CCCNC(=N)N)NC(=O)[C@H](CCCCN)NC1=O)[C@@H](C)O [PSM-0563] (Ac-T[Aib]FCKR[Aib]EC[Tle]T-NH2; disulfide 4-9)
2. C[C@@H](O)[C@H](NC(=O)[C@@H](NC(=O)[C@@H]1CSSC[C@H](NC(=O)[C@H](Cc2ccc(Cl)cc2)NC(=O)C(C)(C)NC(=O)[C@@H](NC(=O)CN2CCN(CC(=O)O)CCN(CC(=O)O)CCN(CC(=O)O)CC2)[C@@H](C)O)C(=O)N[C@@H](CCCCN)C(=O)N[C@@H](CCCNC(=N)N)C(=O)NC(C)(C)C(=O)N[C@@H](CC(N)=O)C(=O)N1)C(C)(C)C)C(N)=O [PSM-0573] ({DOTA}-T[Aib][Phe(4-Cl)]CKR[Aib]NC[Tle]T-NH2; disulfide 4-9)
3. C[C@@H](O)[C@H](NC(=O)[C@@H](NC(=O)[C@@H]1CSSC[C@H](NC(=O)[C@H](Cc2ccccc2)NC(=O)C(C)(C)NC(=O)CCC(=O)O)C(=O)N[C@@H](CCCCN)C(=O)N[C@@H](CCCNC(=N)N)C(=O)NC(C)(C)C(=O)N[C@@H](CC(N)=O)C(=O)N1)C(C)(C)C)C(N)=O [PSM-0577] (Suc-[Aib]FCKR[Aib]NC[Tle]T-NH2; disulfide 3-8)
4. CC(=O)N[C@H](C(=O)NC(C)(C)C(=O)N[C@@H](Cc1ccccc1)C(=O)N[C@H]1CSSC[C@@H](C(=O)N[C@H](C(=O)N[C@H](C(=O)N[C@@H](CC(=O)O)C(N)=O)[C@@H](C)O)C(C)(C)C)NC(=O)[C@H](CC(N)=O)NC(=O)[C@H](C)NC(=O)[C@H](CCCNC(=N)N)NC(=O)[C@H](CCCCN)NC1=O)[C@@H](C)O [PSM-0565] (Ac-T[Aib]FCKRANC[Tle]TD-NH2; disulfide 4-9)
5. CNCCCC[C@@H]1NC(=O)[C@@H](NC(=O)[C@H](Cc2ccc(Cl)cc2)NC(=O)C(C)(C)NC(=O)[C@@H](NC(=O)CC2CCN(C(=O)CN3CCN(CC(=O)O)CCN(CC(=O)O)CCN(CC(=O)O)CC3)CC2)[C@@H](C)O)CSSC[C@@H](C(=O)N[C@H](C(=O)N[C@H](C(N)=O)[C@@H](C)O)C(C)(C)C)NC(=O)[C@H](CC(N)=O)NC(=O)C(C)(C)NC(=O)[C@H](CCCN(C)C(=N)NC)NC1=O [PSM-0590] ({DOTA}-[X1]T[Aib][Phe(4-Cl)]C[Lys(Me)][X16][Aib]NC[Tle]T-NH2; disulfide 5-10)
6. CC(=O)N[C@H](C(=O)NC(C)(C)C(=O)N[C@@H](Cc1c[nH]c2ccccc12)C(=O)N[C@H]1CSSC[C@@H](C(=O)N[C@H](C(=O)N[C@H](C(=O)N[C@@H](CC(=O)O)C(N)=O)[C@@H](C)O)C(C)(C)C)NC(=O)[C@H](CC(N)=O)NC(=O)C(C)(C)NC(=O)[C@H](CCCNC(=N)N)NC(=O)[C@H](CCCCN)NC1=O)[C@@H](C)O [PSM-0587] (Ac-T[Aib]WCKR[Aib]NC[Tle]TD-NH2; disulfide 4-9)

1. 12.6 to 126 nM
2. < 12.6 nM
3. 12.6 to 126 nM
4. < 12.6 nM
5. < 12.6 nM
6. < 12.6 nM
